# Target under test: T1, recombinant human IL-23R/Fc chimera (R&D Systems) (human, UniProt Q5VWK5 24-355)
# T1 construct: Bought; also called rhIL23RFc
# T1 sequence (looked up): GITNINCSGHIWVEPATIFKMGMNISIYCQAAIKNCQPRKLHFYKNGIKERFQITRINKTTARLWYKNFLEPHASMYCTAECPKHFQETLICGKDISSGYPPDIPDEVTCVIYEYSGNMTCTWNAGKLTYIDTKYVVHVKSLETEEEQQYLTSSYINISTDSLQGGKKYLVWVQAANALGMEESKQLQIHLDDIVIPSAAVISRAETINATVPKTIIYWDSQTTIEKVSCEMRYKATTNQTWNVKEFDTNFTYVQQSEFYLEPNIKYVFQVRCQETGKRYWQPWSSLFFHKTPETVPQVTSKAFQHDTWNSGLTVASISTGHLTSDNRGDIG
# Assay method text: SPR
// values below are reported Ka
API: value field is a number in M⁻¹; no unit string.

These solved cases illustrate the format of a correct answer.
101-51-1A5 ATRIMER complex (designed binder, Forms a homotrimer through the tetranectin coiled coil; one protomer is given., not shown: C-terminal tag: His/Myc (pANA4) or HA-StrepII (pANA10)) EPPTQKPKKIVNAKKDVVNTKMFEELKSRLDTLAQEVALLKEQQALQTVCLKGTKVHMKCFLAFTQTKTFHEASEDCISRGGTLSTPQTGSENDALYEYLRQSVGNEAEIWLGLNGSALTNTWVDMTGARIAYKNWENGHEPQPRGGFGYFGENCAVLSGAANGKWFDKRCRDQLPYICQFGIV | 1.71e+09
101-51-1A10 ATRIMER complex (designed binder, Forms a homotrimer through the tetranectin coiled coil; one protomer is given., not shown: C-terminal tag: His/Myc (pANA4) or HA-StrepII (pANA10)) EPPTQKPKKIVNAKKDVVNTKMFEELKSRLDTLAQEVALLKEQQALQTVCLKGTKVHMKCFLAFTQTKTFHEASEDCISRGGTLSTPQTGSENDALYEYLRQSVGNEAEIWLGLNGSALTNTWVDMTGARIAYKNWEHPLPPQPSGGFGYFGENCAVLSGAANGKWFDKRCRDQLPYICQFGIV | 4.85e+08
101-51-1A4 ATRIMER complex (designed binder, Forms a homotrimer through the tetranectin coiled coil; one protomer is given., not shown: C-terminal tag: His/Myc (pANA4) or HA-StrepII (pANA10)) EPPTQKPKKIVNAKKDVVNTKMFEELKSRLDTLAQEVALLKEQQALQTVCLKGTKVHMKCFLAFTQTKTFHEASEDCISRGGTLSTPQTGSENDALYEYLRQSVGNEAEIWLGLNGSALTNTWVDMTGARIAYKNWERPALVQPRGGFGVFGENCAVLSGAANGKWFDKRCRDQLPYICQFGIV | 2.58e+09
101-51-1A9 ATRIMER complex (designed binder) EPPTQKPKKIVNAKKDVVNTKMFEELKSRLDTLAQEVALLKEQQALQTVCLKGTKVHMKCFLAFTQTKTFHEASEDCISRGGTLSTPQTGSENDALYEYLRQSVGNEAEIWLGLNGSALTNTWVDMTGARIAYKNWEPARQPQPGGGFGYFGENCAVLSGAANGKWFDKRCRDQLPYICQFGIV | 1.05e+09
105-20-2A3 ATRIMER complex (designed binder, Homotrimer of three identical chains (ATRIMER complex); one chain is given., not shown: C-terminal tag: His/Myc (pANA4) or HA-StrepII (pANA10)) EPPTQKPKKIVNAKKDVVNTKMFEELKSRLDTLAQEVALLKEQQALQTVCLKGTKVHMKCFLAFTQTKTFHEASEDCISRGGTLSTPQTGSENDALYEYLRQSVGNEAEIWLGLNGSPITNTWVDMTGARIAYKNWETEITAQPDGGFGYFGENCAVLSGAANGKWFDKRCRDQLPYICQFGIV | 1.32e+09

query: Return reported Ka; argument: 001-87.A8E monomeric CTLD (designed binder, C-terminal tag not specified) ALQTVCLKGTKVHMKCFLAFTQTKTFHEASEDCISRGGTLSTPQTGSENDALYEYLRQSVGNEAEIWLGLNANPAQDLWVDMTGARIAYKNWETEITAQPDGGFGVWGENCAVLSGAANGKWFDKRCRDQLPYICQFGIV
result: 7.09e+06
